tested on: UACC-62; assay: NCI tumour cell line growth inhibition, 48 h
Active and inactive are the calls of the source. Rule as the data show it: active = GI50 up to about 1.1 µM and inactive = higher.
experimental.endpoint: GI50

Observe how each entry below is paired with its result.
Incoming: Return value of GI50 for input O=S(=O)(N1CCCCN(S(=O)(=O)C(F)(F)F)CCCN(S(=O)(=O)C(F)(F)F)CCCN(S(=O)(=O)C(F)(F)F)CCCCN(S(=O)(=O)C(F)(F)F)CCCN(S(=O)(=O)C(F)(F)F)CCC1)C(F)(F)F , no commentary.
Outgoing: 64.6 µM (inactive)

Incoming: Return value of GI50 for input COc1ccc(NC(=O)c2oc3cc(O)ccc3c(=O)c2C)c([N+](=O)[O-])c1 , no commentary.
Outgoing: > 100 µM (inactive)

Incoming: Return value of GI50 for input Cc1ccc(Nc2nc(-c3ccc(-c4ccc([N+](=O)[O-])cc4)o3)cs2)cc1 , no commentary.
Outgoing: 99.8 µM (inactive)

Incoming: Return value of GI50 for input CCOS(=O)(=O)c1ccc(-c2c3nc(c(-c4ccc(S(=O)(=O)OCC)cc4)c4ccc([nH]4)c(-c4ccc(S(=O)(=O)OCC)cc4)c4nc(c(-c5ccc(S(=O)(=O)OCC)cc5)c5ccc2[nH]5)C=C4)C=C3)cc1 , no commentary.
Outgoing: > 31.6 µM (inactive)

Incoming: Return value of GI50 for input O=C(O)CCC1(C(=O)O)CCC(=O)c2ccccc21 (stereo not drawn) , no commentary.
Outgoing: > 100 µM (inactive)

Incoming: Return value of GI50 for input O=C1c2ccccc2N2OC3(N4CCCC4)CCCCC3C12c1ccccc1 (stereo not drawn) , no commentary.
Outgoing: 16.4 µM (inactive)

Incoming: Return value of GI50 for input O=C(OCC(Cl)(Cl)Cl)N1CC[C@H](C2CCCCC2)C1 , no commentary.
Outgoing: 22.1 µM (inactive)

Next:
Incoming: Return value of GI50 for input CSc1[nH]nc(N)c1C(=O)Nc1ccc(C)cc1 , no commentary.
Outgoing: > 100 µM (inactive)

* * *

Reported GI50 values for a set of molecules
test system: M14; test: NCI tumour cell line growth inhibition, 48 h
Active and inactive are the calls of the source. No stated cut-off is given here; in the data, active = GI50 up to about 1.1 µM and inactive = higher.

Incoming: Return value of GI50 for input O=c1oc2ccc3ccccc3c2cc1-c1cn2ccsc2n1 , no commentary.
Outgoing: 24 µM (inactive)

Incoming: Return value of GI50 for input O=C(Nc1ccc(Cl)cc1)NS(=O)(=O)c1coc2ccccc2c1=O , no commentary.
Outgoing: > 10 µM (inactive)

Incoming: Return value of GI50 for input COc1cc(O)cc2oc(-c3ccc(O)cc3)cc(=O)c12 , no commentary.
Outgoing: > 100 µM (inactive)

Incoming: Return value of GI50 for input COc1cccc(/N=N/C(=NNC(=O)c2ccc(C)cc2)c2ccc(N(C)C)cc2)c1 , no commentary.
Outgoing: > 100 µM (inactive)

API: the following record is the query input.
Incoming: Return value of GI50 for input CCOC(=O)Cc1nc2c(N)ncnc2n1C1OC(COC(C)=O)C(OC(C)=O)C1OC(C)=O (stereo not given) , no commentary.
Outgoing: > 100 µM (inactive)

* * *

Reported GI50 values for a set of molecules
test system: T47D; assay: NCI tumour cell line growth inhibition, 48 h
Calls of active or inactive are those of the source. Cut-off read from the data, not from the text of the source: active = GI50 up to about 1.1 µM and inactive = higher.

Incoming: Return value of GI50 for input COC(=O)c1cn(CC(O)CCl)nn1 (stereo not drawn) , no commentary.
Outgoing: > 100 µM (inactive)

Next:
Incoming: Return value of GI50 for input CC(=O)OCCn1c(Cc2ccc(C)cc2)nn(C(C)=O)c1=O , no commentary.
Outgoing: > 100 µM (inactive)

Incoming: Return value of GI50 for input CCOC(=O)c1cc2cc(N(C(C)=O)C(C)=O)ccc2s1 , no commentary.
Outgoing: 18.3 µM (inactive)

* * *

test system: T47D; test: NCI tumour cell line growth inhibition, 48 h
The source made the active and inactive calls. Cut-off read from the data, not from the text of the source: active = GI50 up to about 1.1 µM and inactive = higher.
experimental.endpoint: GI50

Incoming: Return value of GI50 for input O=C(OCC(Cl)(Cl)Cl)N1CC[C@H](C2CCCCC2)C1 , no commentary.
Outgoing: 15.3 µM (inactive)

Next:
Incoming: Return value of GI50 for input CC1CCCC(C(=O)CC2CC(=O)NC(=O)C2)C1=O (stereo not drawn) , no commentary.
Outgoing: > 100 µM (inactive)

Incoming: Return value of GI50 for input COc1ccc(/N=C2\C(=N/c3ccc(OC)cc3)N(c3ccccc3[N+](=O)[O-])C(=S)N2c2ccc(OC)cc2)cc1 , no commentary.
Outgoing: 26 µM (inactive)

Incoming: Return value of GI50 for input CC[C@H](C)[C@H](NC(=O)N(CCC#N)CCN(CCN(C(=O)N[C@@H](Cc1ccccc1)C(=O)OC)c1ccccc1)C(=O)N[C@H](C(=O)OC)C(C)C)C(=O)OC , no commentary.
Outgoing: 14.3 µM (inactive)

Incoming: Return value of GI50 for input CN1C/C(=C\c2cccs2)C2=NN(C)C(c3cccs3)C2C1 (stereo not drawn) , no commentary.
Outgoing: 44.4 µM (inactive)

Incoming: Return value of GI50 for input O=C(O)[C@@H]1CSCN1C(=O)[C@@H]1CCC(=S)N1 , no commentary.
Outgoing: > 100 µM (inactive)

Incoming: Return value of GI50 for input COc1cc(/C=C2\C(=O)N(c3cccc(Cl)c3)C(c3ccccc3)S2(=O)=O)cc(OC)c1OC (stereo not drawn) , no commentary.
Outgoing: 41.3 µM (inactive)

Incoming: Return value of GI50 for input C=C1C(=O)O[C@H]2[C@H]3O[C@@H](C[C@@H]12)[C@](C)(O)CC[C@@H]1O[C@@]1(C)CCC[C@H]3C , no commentary.
Outgoing: 25.5 µM (inactive)

* * *

Reported GI50 values for a set of compounds
tested on: MOLT-4; experiment: NCI tumour cell line growth inhibition, 48 h
Activity calls are given as the source filed them. Rule as the data show it: active = GI50 up to about 1.1 µM and inactive = higher.

Observe how each entry below is paired with its result.
Incoming: State the measured GI50 (MOLT-4) of CNC(=O)N(CCC#N)[C@H]1CCCC[C@@H]1N(C(=O)NC)c1ccccc1
Outgoing: > 100 µM (inactive)

Incoming: State the measured GI50 (MOLT-4) of COc1cc2c3c(n(C)c(=O)c2cc1OC)-c1cc2c(cc1C3=O)OCO2
Outgoing: 0.44 µM (active)

Incoming: State the measured GI50 (MOLT-4) of C=C1C(=O)O[C@H]2[C@H]3O[C@@H](C[C@@H]12)[C@](C)(O)CC[C@@H]1O[C@@]1(C)CCC[C@H]3C
Outgoing: 30.3 µM (inactive)

Incoming: State the measured GI50 (MOLT-4) of COc1ccc2c(c1)c1ccc3c(c1n2C)C(=O)C=CC3=O
Outgoing: 0.834 µM (active)

Incoming: State the measured GI50 (MOLT-4) of COC(=O)NNC(c1ccc(Cl)cc1)c1ccc(Cl)cc1
Outgoing: 16.5 µM (inactive)

Next:
Incoming: State the measured GI50 (MOLT-4) of COC(=O)C1(C)C=C(Nc2ccccc2)C(=O)N1c1ccccc1 (stereo unspecified)
Outgoing: > 100 µM (inactive)

Incoming: State the measured GI50 (MOLT-4) of O=C(/C=C/c1cccc(Br)c1)c1cccs1
Outgoing: 15.3 µM (inactive)

Incoming: State the measured GI50 (MOLT-4) of O=[N+]([O-])c1ccc2[nH]c3c(-c4ccccc4)nccc3c2c1
Outgoing: 2.31 µM (inactive)

Incoming: State the measured GI50 (MOLT-4) of CC(=O)CC1(OC(=O)C2C(C=C(C)C)C2(C)C)C(=O)Nc2ccccc21 (stereo unspecified)
Outgoing: > 100 µM (inactive)

Incoming: State the measured GI50 (MOLT-4) of ClCC1(CCl)COC1
Outgoing: > 100 µM (inactive)

Incoming: State the measured GI50 (MOLT-4) of COc1ccc2c(=O)c(-c3cc(OC)c(OC)cc3OC)coc2c1
Outgoing: 2 µM (inactive)

* * *

test system: NCI/ADR-RES; assay: NCI tumour cell line growth inhibition, 48 h
Calls of active or inactive are those of the source. No stated cut-off is given here; in the data, active = GI50 up to about 1.1 µM and inactive = higher.
Reported GI50 values for a set of compounds

Observe how each entry below is paired with its result.
Incoming: Return value of GI50 for input CCCCCNC1=CC(=O)c2ccccc2C1=O , no commentary.
Outgoing: 45.3 µM (inactive)

Incoming: Return value of GI50 for input C[C@H](c1ccccc1)n1c(N)c(-c2nc3ccccc3s2)c2ccc([N+](=O)[O-])cc2c1=O , no commentary.
Outgoing: 2.84 µM (inactive)

Incoming: Return value of GI50 for input CCOC(=O)C(O)(NC(=O)NC(O)(C(=O)OCC)C(F)(F)F)C(F)(F)F (stereo unspecified) , no commentary.
Outgoing: > 100 µM (inactive)

Incoming: Return value of GI50 for input c1ccc(NN/N=N/c2ccc(-c3nc4ccccc4[nH]3)cc2)cc1 , no commentary.
Outgoing: 22.1 µM (inactive)

Incoming: Return value of GI50 for input Cc1oncc1/N=C1\C=C(O)C(=O)c2ccccc21 , no commentary.
Outgoing: 3.85 µM (inactive)

Next:
Incoming: Return value of GI50 for input CC(=O)Oc1ccccc1C(=O)Nc1ncc([N+](=O)[O-])s1 [NITAZOXANIDE] , no commentary.
Outgoing: 10.3 µM (inactive)

Incoming: Return value of GI50 for input Cc1cc(-c2ccccc2)nc2oc(=O)n(C)c12 , no commentary.
Outgoing: > 100 µM (inactive)

Incoming: Return value of GI50 for input COC(=O)c1cc2c(cc1C(=O)OC)[C@@]1(C)CCCC(C)(C)C1CC2 (stereo partly specified) , no commentary.
Outgoing: 16.3 µM (inactive)

Incoming: Return value of GI50 for input Cc1nc(Nc2ccc(Cl)c(Cl)c2)sc1C(/C=C/c1ccc2c(c1)OCO2)=N/Nc1ccc([N+](=O)[O-])cc1[N+](=O)[O-] , no commentary.
Outgoing: > 100 µM (inactive)

Incoming: Return value of GI50 for input O=C(/C=C/c1cccc(Br)c1)c1cccs1 , no commentary.
Outgoing: 23.6 µM (inactive)

Incoming: Return value of GI50 for input CC(=O)C1CC[C@@H]2[C@H](CC[C@]3(C)[C@@H](O)CC[C@@H]23)[C@H]1C(=O)O (stereo partly specified) , no commentary.
Outgoing: > 100 µM (inactive)

Incoming: Return value of GI50 for input CCOC(=O)Cc1nc2c(N)ncnc2n1C1OC(COC(C)=O)C(OC(C)=O)C1OC(C)=O (stereo unspecified) , no commentary.
Outgoing: > 100 µM (inactive)

Incoming: Return value of GI50 for input CCN(CC)CCOCCOCC1(c2ccc(Cl)c(Cl)c2)CCCCC1 , no commentary.
Outgoing: 11.4 µM (inactive)

Incoming: Return value of GI50 for input CCCCCC(/C=C/C1CCC(=O)C1CC#C[Si](C)(C)C)OCc1ccccc1 (stereo unspecified) , no commentary.
Outgoing: 14.5 µM (inactive)

Incoming: Return value of GI50 for input COc1ccc(/C(C#N)=C/c2ccc(OC)c(OC)c2)cc1 , no commentary.
Outgoing: > 100 µM (inactive)

Incoming: Return value of GI50 for input O=S(=O)(O)c1ccc(/N=N/c2ccccc2)cc1 , no commentary.
Outgoing: > 100 µM (inactive)

Incoming: Return value of GI50 for input Cc1ccc(NC(=O)C23CC4CC(CC(C4)C2)C3)c(C(=O)NNC(=O)c2ccc(Cl)cc2)c1 , no commentary.
Outgoing: 21.2 µM (inactive)

Data origin: ChEMBL document CHEMBL1201862
